Recorded measurements of IC50, one per entry
# Subject Of Test: human CRTH2 (Homo sapiens, UniProt Q9Y5Y4, V204A)
# Sequence (Q9Y5Y4 whole entry V204A): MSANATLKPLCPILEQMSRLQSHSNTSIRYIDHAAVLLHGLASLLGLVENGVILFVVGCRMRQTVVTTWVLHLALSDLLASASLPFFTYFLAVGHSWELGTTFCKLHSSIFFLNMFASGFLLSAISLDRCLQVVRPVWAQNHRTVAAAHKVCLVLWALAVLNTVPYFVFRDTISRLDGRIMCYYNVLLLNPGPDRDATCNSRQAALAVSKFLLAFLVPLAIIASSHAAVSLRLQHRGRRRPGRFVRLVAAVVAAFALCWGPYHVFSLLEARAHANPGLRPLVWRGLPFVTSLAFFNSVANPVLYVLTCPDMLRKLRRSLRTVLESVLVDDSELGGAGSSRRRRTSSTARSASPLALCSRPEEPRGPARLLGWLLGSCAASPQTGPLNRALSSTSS
# Run Description: Functional antagonist BRET assay on HEK293 cells stably expressing human CRTH2-Rluc and GFP2-β-arr2
# Format: cell-based
# Set-up: expressed in transfected cells
# Condition Parameters: BRET, antagonist incubated 15 minutes prior to agonist; read-out: Antag. IC50
# Experimental: Generation/origin of the cDNA Constructs. […] BRET assay. […] Five seconds after the injections the light output from the well was measured sequentially at 400 nm and 515 nm, and the BRET signal (mBRET ratio) was calculated by the ratio of the fluorescence emitted by GFP^2-β-arr2 (515 nm) over the light emitted by the receptor-Rluc (400 nm). […]

Illustrative cases are given below, each with its answer.
INSERT INTO results (compound, assay_result) VALUES
  ('CC(Oc1ccc(Br)cc1C(=O)c1cnn(-c2cc(Cl)ccc2Cl)c1)C(=O)O (stereo not drawn)', '< 500 nM'),
  ('Cc1ccc(-n2cc(C(=O)c3cc(Br)ccc3OC(C)C(=O)O)cn2)c(C)c1 (stereo not drawn)', '< 500 nM'),
  ('COc1cccc(-c2nc(-c3cc(Br)ccc3OCC(=O)O)co2)c1', '< 500 nM'),
  ('CCc1ccc(OCC(=O)O)c(C(=O)c2cnn(-c3c(Cl)cccc3Cl)c2)c1', '< 500 nM'),
  ('O=C(O)COc1ccc(Br)cc1C(=O)c1cnn(-c2c(Cl)cc(Cl)cc2Cl)c1', '< 500 nM'),
  ('O=C(O)COc1ccc(Br)cc1C(=O)c1cnn(-c2ccccc2Oc2ccccc2)c1', '< 500 nM'),
  ('CC(C)c1ccc(OCC(=O)O)c(C(=O)c2cnn(-c3ccccc3Cl)c2)c1', '< 500 nM'),
  ('O=C(O)COc1ccc(Br)cc1-c1csc(Cc2ccc(Cl)cc2)n1', '< 500 nM');

Query :: Name the reported IC50 value associated with the compound CC(C)c1ccccc1-n1cc(C(=O)c2cc(Br)ccc2OCC(=O)O)cn1
Result :: < 500 nM

###

# Subject Of Test: human CRTH2 (Homo sapiens, UniProt Q9Y5Y4, V204A)
# Run Description: Receptor binding assay: [3H]PGD2 competition binding on whole COS-7 cells transiently transfected with CRTH2 (also stable HEK293 cells)
# Parameters: expressed in transfected cells; host or cells: COS-7 (transient, calcium phosphate)
# Condition Parameters: competition with 0.1 nM [3H]PGD2, whole cells, 3 h at 4° C.
Observed Property: IC50

INSERT INTO measurements (compound, subject_of_test, assay_result) VALUES
  ('CCOc1ccccc1-n1cc(C(=O)c2cc(Br)ccc2OC(C)C(=O)O)cn1 (stereo not shown)', 'human CRTH2 (Homo sapiens, UniProt Q9Y5Y4, V204A)', '< 0.5 µM'),
  ('CCOc1ccc(OCC(=O)O)c(C(=O)c2cnn(-c3ccccc3)c2)c1', 'human CRTH2 (Homo sapiens, UniProt Q9Y5Y4, V204A)', '0.5 to 5 µM'),
  ('O=C(O)COc1ccc(Br)cc1C(=O)c1cnn(-c2cccc(C(F)(F)F)c2)c1', 'human CRTH2 (Homo sapiens, UniProt Q9Y5Y4, V204A)', '< 0.5 µM');

Okay, next one:
Query :: Name the reported IC50 value associated with the compound O=C(O)COc1ccc(Br)cc1C=NNc1nncc(-c2ccccc2)n1
Result :: < 0.5 µM
